Overview of recorded melting point for various molecules

>  <MOLECULE>
N=C(NC=Cc1ccc([N+](=O)[O-])cc1)c1cccc(N)c1

>  <melting point>
146 to 148 °C

$$$$
>  <MOLECULE>
C=CC(=O)c1ccc(O)cc1

>  <melting point>
99 to 103 °C

$$$$
>  <MOLECULE>
CC(C)(C)OC(=O)C=Cc1ccc(NC(=O)C=C2CC(C(=O)OCc3ccccc3)Nc3cc(Cl)cc(Cl)c32)cc1 (racemic)

>  <melting point>
85 °C

$$$$
>  <MOLECULE>
CCCCc1ncc(/C=C(\Cc2cccs2)C(=O)O)n1Cc1cccc([N+](=O)[O-])c1

>  <melting point>
182 to 184 °C

$$$$
>  <MOLECULE>
c1ccc(-c2cnn3cc(-c4ccc(CCCN5CCOCC5)cc4)cnc23)cc1

>  <melting point>
147 to 149 °C

$$$$
>  <MOLECULE>
CC(C)(C)C1(O)CCN(CC23CC(c4ccc(Cl)cc42)c2ccc(Cl)cc23)CC1

>  <melting point>
194 to 196 °C

$$$$
>  <MOLECULE>
Cc1cc(N2CCN(CCOc3ccccc3)C2=O)sc1C(=O)NCc1cccnc1

>  <melting point>
78 to 80 °C

$$$$
>  <MOLECULE>
CON1CCC2(CC1)C(OCc1ccccc1)=C(c1c(C)cc(C)cc1C)C(=O)N2C

>  <melting point>
139 to 141 °C

$$$$
>  <MOLECULE>
CCn1c(N)nc2cc(CN3CCN(C(c4ccccc4)c4ccccc4)CC3)ccc21

>  <melting point>
214 °C

$$$$
>  <MOLECULE>
COc1ccc(CCN2CCC(C(O)(c3cccs3)c3cccs3)CC2)cc1

>  <melting point>
153 to 155 °C

$$$$
>  <MOLECULE>
O=C(N[C@H]1CC[C@H](CCN2CCN(c3nccc4ccoc34)CC2)CC1)C1CCOCC1

>  <melting point>
211 °C

$$$$
>  <MOLECULE>
CC(=O)Nc1ccc2nc3[nH]c(=O)[nH]c3cc2c1

>  <melting point>
> 320 °C

$$$$
>  <MOLECULE>
CCCCc1ccc(NC(=O)CCc2ccccc2)c(=O)n1CC(=O)OC

>  <melting point>
84 to 85 °C

$$$$
>  <MOLECULE>
CCC(=O)Oc1cccc(NC(=O)CBr)c1

>  <melting point>
85 to 88 °C

$$$$
>  <MOLECULE>
CCOC(=O)C(NC(=O)CCl)c1cscn1 (stereo unspecified)

>  <melting point>
145 to 146 °C

$$$$
>  <MOLECULE>
O=C(NC(=O)c1cccs1)NC1CCNC(Cc2ccc3ccccc3c2)C1 (stereo unspecified)

>  <melting point>
217 to 219 °C

$$$$
>  <MOLECULE>
NC(=O)CNC(=O)CN1CCCC1=O

>  <melting point>
147 to 148 °C

$$$$
>  <MOLECULE>
O=C(NCC1COCCO1)C1CCCN(c2cccc3c2C(=O)N(Cc2ccncc2)C3=O)C1 (stereo unspecified)

>  <melting point>
186 to 187 °C

$$$$
>  <MOLECULE>
Cc1cc(C)c2nc(NCCCN3CCCCC3)n(Cc3nc(C)ccc3O)c2c1

>  <melting point>
> 260 °C

$$$$
>  <MOLECULE>
COc1ccccc1N1CCN(CCCNC(=O)c2cccc3c(=O)cc(-c4ccccc4)[nH]c23)CC1

>  <melting point>
135 to 140 °C

$$$$
>  <MOLECULE>
c1ccc(Nc2ncnc3[nH]ccc23)cc1

>  <melting point>
234 to 236 °C

$$$$
>  <MOLECULE>
O=C(O)c1cccc(-c2cc([N+](=O)[O-])ccc2F)c1

>  <melting point>
272 to 274 °C

$$$$
>  <MOLECULE>
CCCCN=C(CS(C)=O)c1cccc(OC)c1O (stereo unspecified)

>  <melting point>
125 to 127 °C

$$$$
>  <MOLECULE>
COc1cc(N)cc(OC)c1-c1ccc(C[C@H](NC(=O)c2c(Cl)cccc2Cl)C(=O)O)cc1

>  <melting point>
221 to 222 °C

$$$$
>  <MOLECULE>
COc1cc(C)cc(OC)c1NC(=O)CNC(=O)OC(C)(C)C

>  <melting point>
146 °C

$$$$
>  <MOLECULE>
CC(C(=O)NC(C)(C)C)c1cc(Cl)ccc1C(=O)O (stereo unspecified)

>  <melting point>
175 to 178 °C

$$$$
>  <MOLECULE>
Cn1cc(C(=O)OCC23CCCN(CC2)C3)c2ccccc21 (stereo unspecified)

>  <melting point>
94.5 to 96.5 °C

$$$$
>  <MOLECULE>
Cc1cc(C)cc(C(=O)c2c(-c3ccc(OCCCN(C)C)cc3)oc3ccccc23)c1

>  <melting point>
103 to 106 °C

$$$$
>  <MOLECULE>
N#Cc1c(N2CCc3ccccc3CC2)ncn(CCO)c1=O

>  <melting point>
167 to 171 °C

$$$$
>  <MOLECULE>
CCOC(=O)c1cn(C(C)CSc2ccccc2)c2nc(F)c(Cl)cc2c1=O (stereo unspecified)

>  <melting point>
70 °C

$$$$
>  <MOLECULE>
CC(C)c1csc(/C=C/c2cc([N+](=O)[O-])ccc2Cl)n1

>  <melting point>
86 to 89 °C

$$$$
>  <MOLECULE>
COc1cc(C)nc(NC(=O)NS(=O)(=O)c2cccc3c2OCCO3)n1

>  <melting point>
203 to 205 °C

$$$$
>  <MOLECULE>
COC(=O)c1ccc(NC(=O)c2sc3ccc(OC)cc3c2Cl)cc1

>  <melting point>
205 to 206 °C

$$$$
>  <MOLECULE>
O=[N+]([O-])c1ccc([N+](=O)[O-])c(OCC=CCBr)c1

>  <melting point>
81 to 83 °C

$$$$
>  <MOLECULE>
CCCCN(CCCC)CCCCC(=O)c1ccc2c(c1)Cc1cc(C(=O)CCCCN(CCCC)CCCC)ccc1-2

>  <melting point>
48 to 50 °C

$$$$
>  <MOLECULE>
C=CCc1cc2cc(CC=C(C)C)c(=O)[nH]c2c(CC=C)c1O

>  <melting point>
241 to 244 °C

$$$$
